- target: MAPK14 (human) (UniProt Q16539)
- Sequence (Q16539 whole entry, looked up): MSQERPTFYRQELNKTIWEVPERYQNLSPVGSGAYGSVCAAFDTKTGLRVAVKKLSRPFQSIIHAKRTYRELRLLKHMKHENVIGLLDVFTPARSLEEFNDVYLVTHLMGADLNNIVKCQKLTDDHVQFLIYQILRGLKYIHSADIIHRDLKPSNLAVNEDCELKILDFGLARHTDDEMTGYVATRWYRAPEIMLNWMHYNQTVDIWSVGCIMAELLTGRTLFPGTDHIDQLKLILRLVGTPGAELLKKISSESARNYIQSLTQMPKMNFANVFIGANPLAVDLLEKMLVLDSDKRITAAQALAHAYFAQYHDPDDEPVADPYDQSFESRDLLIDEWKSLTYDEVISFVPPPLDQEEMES
- assay_explanation: Inhibition of LPS Stimulated TNF Production by U937 Cells
- measurement_context: concentration not given here
experimental_readout: inhibition (%)

I. CNC(=O)NCc1[nH]nc(-c2ccc(F)cc2)c1-c1ccncc1
II. O=S(=O)(NCc1[nH]nc(-c2ccc(F)cc2)c1-c1ccncc1)c1cccc2nonc12
III. C[C@@H](NS(=O)(=O)c1cn(C)cn1)c1[nH]nc(-c2ccc(F)cc2)c1-c1ccncc1
stdin: # rank by inhibition, ascending (min first) List the labels according to the requested ordering.
stdout: I, II, III
(I: 30%, II: 54%, III: 80%)

1. O=C(NCCc1[nH]nc(-c2ccc(F)cc2)c1-c1ccncc1)c1ccc(I)cc1
2. C[C@H](NS(=O)(=O)c1cccc2c(N(C)C)cccc12)c1[nH]nc(-c2ccc(F)cc2)c1-c1ccncc1
3. CCOC(=O)C(CCSC)NC(=O)NCc1[nH]nc(-c2ccc(F)cc2)c1-c1ccncc1 (stereo unspecified)
4. O=C(NCCCc1[nH]nc(-c2ccc(F)cc2)c1-c1ccncc1)NCCCN1CCCC1
5. CCOC(=O)c1ccc(NC(=O)NCc2[nH]nc(-c3ccc(F)cc3)c2-c2ccncc2)cc1
stdin: Order the records so the highest inhibition appears first and the lowest last. Please reply with the labels ordered as requested. Many thanks.
stdout: 2, 1, 3, 5, 4
(2: 68%, 1: 33%, 3: 22%, 5: 13%, 4: 1%)

I. O=C(NCCc1[nH]nc(-c2ccc(F)cc2)c1-c1ccncc1)[C@H]1CCCN1
II. Cc1c(-c2ccncc2)c(-c2ccc(F)cc2)nn1CC(=O)NCCCN1CCN(C)CC1
stdin: For I and II , which recorded inhibition is lower? Reply briefly: the label of your chosen item.
stdout: II
(II: 30%, I: 63%)

Where do these numbers come from? They come from the Kinase Knowledgebase extract (Sharma et al. 2016).
